# TESTED SYSTEM: INDY (Homo sapiens, UniProt Q86YT5)
# Sequence (Q86YT5 whole entry): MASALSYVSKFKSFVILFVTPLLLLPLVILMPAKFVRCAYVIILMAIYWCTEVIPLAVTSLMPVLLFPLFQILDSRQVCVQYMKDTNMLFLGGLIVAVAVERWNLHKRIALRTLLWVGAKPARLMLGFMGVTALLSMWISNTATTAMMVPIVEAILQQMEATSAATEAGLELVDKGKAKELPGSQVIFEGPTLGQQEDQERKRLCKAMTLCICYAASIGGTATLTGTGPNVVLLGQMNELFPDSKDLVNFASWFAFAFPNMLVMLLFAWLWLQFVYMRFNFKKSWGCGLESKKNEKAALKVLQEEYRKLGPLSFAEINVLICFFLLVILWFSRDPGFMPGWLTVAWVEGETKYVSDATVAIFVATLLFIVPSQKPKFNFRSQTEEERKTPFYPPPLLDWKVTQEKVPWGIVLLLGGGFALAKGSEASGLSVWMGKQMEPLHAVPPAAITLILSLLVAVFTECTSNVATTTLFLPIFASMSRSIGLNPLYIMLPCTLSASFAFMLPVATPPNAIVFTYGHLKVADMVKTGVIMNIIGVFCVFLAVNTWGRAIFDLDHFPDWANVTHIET
# ASSAY DETAILS: 14C-citrate uptake in HepG2 cells endogenously expressing INDY (NaCT)
# Format: cell-based
# CONDITION DETAILS: endogenous INDY
# Protocol: The compound was obtained by screening of a library containing more than 50,000 lead-like compounds and fragments. The library was tested using a functional citrate uptake assay with HEK293 cells overexpressing recombinant human INDY. The following hit confirmation was conducted in the same assay system. […] In this assay system citrate uptake was measured using HepG2 cells which endogenously express INDY. […] INDY mediated citrate uptake was also determined in HepG2 cells. […]
In plain terms, low IC50, meaning strictly below 800 nM, gives y, and everything else gives n.

Completed entries (count: 5):
O=C(NCc1ccccn1)C1CCN(S(=O)(=O)c2cc(F)cc(Cl)c2)CC1 :: n
O=C(NCc1ccccn1)C1CCN(S(=O)(=O)c2ccc(C3(C(F)(F)F)CC3)cc2)CC1 :: y
O=C(NCc1ccccc1O)C1CCN(S(=O)(=O)c2cc(Cl)cc(Cl)c2)CC1 :: y
Nc1ccc(CNC(=O)C2CCN(S(=O)(=O)c3cc(Cl)cc(Cl)c3)CC2)cc1 :: n
CC(C)c1ccc(S(=O)(=O)N2CCC(C(=O)NCc3ccccn3)CC2)cc1 :: n

Problem: Take the compound O=C(NCc1ccccn1)C1CCN(S(=O)(=O)c2ccc(C(F)(F)F)cc2Cl)CC1 and say whether its IC50 is less than 800 nM.
Result: n

Problem: Hi there! Is IC50 for O=C(NCc1ccccn1)C1CCN(S(=O)(=O)c2ccc(C3CCCCC3)cc2)CC1 below 800 nM, do you know?
Result: n
